measured-target: T1, GST-MUPP1 PDZ domain 9 (Homo sapiens (Human)), O75970
T1 chain: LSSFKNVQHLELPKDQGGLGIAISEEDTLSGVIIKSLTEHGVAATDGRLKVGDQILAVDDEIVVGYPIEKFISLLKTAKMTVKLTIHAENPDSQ
assay-protocol: G' assay; further: key of the grades not given here
measure: Classification (A450 class)
Provide only the numeric value, understood in A450 class.

>>> measured("KTMPAAMYRLLTAQEQPVYI (modifications not checked) [MINT-1]")
3
>>> measured("KTMPAAMFRLLTGQETPLYI (modifications not checked) [MINT-2]")
1
>>> measured("TALRIKKTLAKMVESQDVKI (modifications not checked) [bone morphogenetic protein receptor]")
1
>>> measured("STDNLVRPFMDTLASHQLYI (modifications not checked) [presenilin-2]")
3
>>> measured("PVYIVQEMPPQSPANIYYKV (modifications not checked) [ephrin B1]")
1
>>> measured("HHLVAQRDIRQFQLQHWLAI (modifications not checked) [noradrenaline transporter]")
3

Consider the additional binder presented here.
# Classification of VHDAESSDEDGYDWGPATDL (modifications not checked) [zona occludens 3 (ZO-3) PL peptide] = 1
